- measured_target: UniProt P18825
- Sequence (P18825 whole entry): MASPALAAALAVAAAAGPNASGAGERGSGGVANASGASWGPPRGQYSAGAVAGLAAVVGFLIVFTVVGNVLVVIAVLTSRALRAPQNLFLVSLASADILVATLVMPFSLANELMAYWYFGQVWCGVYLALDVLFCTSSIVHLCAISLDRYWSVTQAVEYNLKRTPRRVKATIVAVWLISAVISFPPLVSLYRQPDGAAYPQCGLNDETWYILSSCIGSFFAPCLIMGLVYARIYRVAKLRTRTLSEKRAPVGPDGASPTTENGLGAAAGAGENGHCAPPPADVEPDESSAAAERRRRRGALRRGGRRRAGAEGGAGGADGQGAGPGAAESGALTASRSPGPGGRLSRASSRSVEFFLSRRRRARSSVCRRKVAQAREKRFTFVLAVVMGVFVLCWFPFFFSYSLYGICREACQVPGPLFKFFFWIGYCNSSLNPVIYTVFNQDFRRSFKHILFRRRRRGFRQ
- assay_summary: Cross screening panel
pEC50: −log10 of the molar value.
measured_endpoint: pEC50

// fetch pEC50 given entry CC(=O)Nc1c(F)cc(C(=O)N[C@H]2CC[C@H](O)CC2)cc1O[C@@H](C)c1ccccc1
< 4.00

###

- measured_target: Transcription intermediary factor 1-alpha (Homo sapiens, UniProt O15164)
- Sequence (O15164 whole entry): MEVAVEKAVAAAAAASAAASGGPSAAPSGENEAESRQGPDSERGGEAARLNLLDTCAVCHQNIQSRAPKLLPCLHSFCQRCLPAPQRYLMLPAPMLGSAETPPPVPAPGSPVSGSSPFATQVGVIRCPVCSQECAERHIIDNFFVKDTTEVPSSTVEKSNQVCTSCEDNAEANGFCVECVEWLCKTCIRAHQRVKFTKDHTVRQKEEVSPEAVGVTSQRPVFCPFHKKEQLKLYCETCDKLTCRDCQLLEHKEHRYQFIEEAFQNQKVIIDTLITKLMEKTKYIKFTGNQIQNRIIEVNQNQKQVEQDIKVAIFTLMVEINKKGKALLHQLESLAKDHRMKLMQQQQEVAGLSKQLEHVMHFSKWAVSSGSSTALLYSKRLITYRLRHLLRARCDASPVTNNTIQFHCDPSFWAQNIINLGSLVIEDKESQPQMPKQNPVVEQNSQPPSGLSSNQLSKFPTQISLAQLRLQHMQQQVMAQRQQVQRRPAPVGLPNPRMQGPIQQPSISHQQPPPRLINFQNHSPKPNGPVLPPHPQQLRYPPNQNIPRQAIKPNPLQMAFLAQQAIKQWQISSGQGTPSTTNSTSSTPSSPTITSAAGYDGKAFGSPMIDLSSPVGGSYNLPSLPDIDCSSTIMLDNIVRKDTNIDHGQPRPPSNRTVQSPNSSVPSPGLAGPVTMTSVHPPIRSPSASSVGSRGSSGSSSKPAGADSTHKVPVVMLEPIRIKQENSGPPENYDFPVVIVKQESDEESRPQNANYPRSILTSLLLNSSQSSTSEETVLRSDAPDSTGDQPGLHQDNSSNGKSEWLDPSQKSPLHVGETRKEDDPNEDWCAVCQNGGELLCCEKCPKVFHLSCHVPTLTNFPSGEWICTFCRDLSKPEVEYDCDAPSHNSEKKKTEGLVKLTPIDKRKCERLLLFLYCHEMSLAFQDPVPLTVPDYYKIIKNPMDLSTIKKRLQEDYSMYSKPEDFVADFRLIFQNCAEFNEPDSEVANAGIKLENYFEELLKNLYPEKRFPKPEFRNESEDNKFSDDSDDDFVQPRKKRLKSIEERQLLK
- assay_summary: TRIM24(PHD,Bromo.) DiscoverX BROMOscan
measured_endpoint: pKd
The meaning of pKd here: minus log10 of the concentration in molar units.

Please respond with reported pKd (system Transcription intermediary factor 1-alpha (Homo sapiens, UniProt O15164)) for CC(=O)Nc1c(F)cc(C(=O)N[C@H]2CC[C@H](O)CC2)cc1O[C@@H](C)c1ccccc1 [GSK046] .
4.52
